- Test system: SNB-75 CNS
- Assay protocol: NCI tumour cell line growth inhibition, 48 h
Readout label: GI50

Consider the reported GI50 for these compounds:
CCN(CC)CCC(=O)Nc1cccc2c1C(=O)c1c(c(O)c3ccccc3c1O)C2=O ... 2.11 µM
CCCCCCn1c(-c2ccc(C(=O)O/N=C(\N)c3ccc(OC)cc3)cc2)nc(-c2ccccc2)c1-c1ccccc1 ... 1.29 µM
O=C(CNC(=O)c1cccc2ccccc12)Nc1ccccc1Oc1cccc(O)c1 ... 3.3 µM

Quick request: GI50 for each listed item, please.
1. N#C/C(=C\c1cn(-c2ccccc2)c2ccccc12)C(=O)O
2. N#Cc1nc(-c2cccc(Br)c2)cc(-c2ccc(Nc3nc(N4CCCCC4)nc(N4CCCCC4)n3)cc2)c1N

Reply:
["31.4 µM", "1.36 µM"]

Quick request: GI50 for each listed item, please.
1. COc1ccc(C2CC(=O)Nc3c2c(C)nn3-c2nc3ccccc3[nH]2)cc1 (centres undefined)
2. COc1ccc(NC2=C(Sc3nc(C)cc(C)n3)C(=O)N(Cc3ccccc3)C2=O)cc1Cl
3. N#Cc1c(NC(=O)c2cccs2)[n+]([O-])c2ccccc2[n+]1[O-]
4. CNC(=O)c1cc(Oc2ccc3nc(NC(=O)Nc4ccc(Cl)c(Cl)c4)sc3c2)ccn1

Reply:
["2.36 µM", "40.8 µM", "49.5 µM", "1.73 µM"]

====

I'd appreciate it if you could supply GI50 values for the items below.
- Tested on: SNB-19 CNS
- Assay protocol: NCI tumour cell line growth inhibition, 48 h

Quick request: GI50 for each listed item, please.
1. COC(=O)c1c2c(c(C)[n+]([O-])c1C)C(=O)C=C(NCc1ccc(Cl)cc1)C2=O
2. COc1ccc(NC2=C(Sc3nc(C)cc(C)n3)C(=O)N(Cc3ccccc3)C2=O)cc1Cl
3. CC(=O)OCC(=O)[C@@]1(O)[C@H](C)C[C@H]2[C@@H]3C=C(C)C4=Cc5c(cnn5-c5ccc(F)cc5)C[C@]4(C)[C@H]3[C@@H](O)C[C@@]21C
4. O=C(CNC(=O)c1cccc2ccccc12)Nc1ccccc1Oc1cccc(O)c1

Reply:
1: 1160 nM; 2: > 160000 nM; 3: 2030 nM; 4: 8730 nM

====

I'd appreciate it if you could supply TGI values for the items below.
- Tested on: A498 renal
- Assay protocol: NCI tumour cell line growth inhibition, 48 h

Consider the reported TGI for these compounds:
O=C(O)CCC(=O)Nc1ccc2c(c1)S(=O)(=O)N(CC(=O)O)C2=O ... > 100 µM
Nc1ccc(N=Nc2ccc(/C=C/c3ccc(N=Nc4ccc(N)c5ccc(S(=O)(=O)O)cc45)cc3S(=O)(=O)O)c(S(=O)(=O)O)c2)c2cc(S(=O)(=O)O)ccc12 ... > 100 µM
Cc1nc2ccccc2nc1NS(=O)(=O)c1ccc(N)cc1 ... > 100 µM
c1ccc(-c2nc(Nc3ccc(-c4nc5ccccc5[nH]4)cc3)nc(N3CCOCC3)n2)cc1 ... 2.62 µM

Quick request: TGI for each listed item, please.
1. COc1ccc(NC(=O)C2=C(SC)C(C#N)C(=O)N=C2N)cc1 (stereo not given)
2. C/C(=N\NC(N)=S)c1ccc2c(c1)OCO2
3. O=C(Nc1ccccc1)N1CCNC1=S
4. O=C(/C=C/c1ccc(O)c(O)c1)NC(CO)C(=O)O (stereo not given)
5. CCN(CC)c1ccc(/C=N/NC(=O)c2ccc(Nc3ccnc(C(F)(F)F)c3)cc2)c(O)c1
6. CCN(CC)CCCCC1CCN(CC(=O)N2c3ccccc3NC(=O)c3ccccc32)CC1

Reply:
1. > 100 µM
2. > 100 µM
3. > 100 µM
4. > 100 µM
5. 10.6 µM
6. > 100 µM

FYI, the data here is from PubChem BioAssay (NCI).
